Listed compounds paired with reported IC50
Tested on: Caki-1 (kidney)
Procedure summary: Cell growth inhibition assay (SRB), Caki-1
Type: cell-based
Recorded conditions: Homo sapiens; SRB method, 96 hours incubation, Caki-1 (kidney); read-out: IC50, Caki-1
Protocol: OVCAR-3, MCF-7, PC3, HepG2, A549, HT-29 and MKN-45 were grown in RPMI1640 medium (Invitrogen, Carlsbad, Calif.) supplemented with 10% fetal bovine serum (‘FBS’), 1 mM sodium pyruvate, 10 mM HEPES and 100 U/ml penicillin and 100 m g/ml streptomycin (‘P/S’). […] The growth inhibition of the substituted quinoxalin-piperazine compounds against a variety of human tumor cells was evaluated. […] The IC50 values were calculated by non-linear regression analysis.
Value type: IC50 (nM)

INSERT INTO results (smiles_code, recorded_measurement) VALUES
  ('COc1ccc2nc(NC(=O)N3CCN(c4cc(C)cc(C)c4)CC3)c(OC)nc2c1', 300),
  ('COc1nc2cc(F)ccc2nc1NC(=O)N1CCN(c2cc(C)cc(C)c2)CC1', 330),
  ('COc1cc(OC)cc(N2CCN(C(=O)Nc3nc4ccc(C)cc4nc3OC)CC2)c1', 190),
  ('COc1nc2cc(Cl)ccc2nc1NC(=O)N1CCN(c2cc(C)cc(C)c2)CC1', 310);

Origin of values: patent US8598173B2
